Target desc: Tyrosyl-tRNA synthetase, putative (Trypanosoma cruzi (strain CL Brener)) (UniProt Q4DSP6)
Sequence (Q4DSP6 as listed by the source): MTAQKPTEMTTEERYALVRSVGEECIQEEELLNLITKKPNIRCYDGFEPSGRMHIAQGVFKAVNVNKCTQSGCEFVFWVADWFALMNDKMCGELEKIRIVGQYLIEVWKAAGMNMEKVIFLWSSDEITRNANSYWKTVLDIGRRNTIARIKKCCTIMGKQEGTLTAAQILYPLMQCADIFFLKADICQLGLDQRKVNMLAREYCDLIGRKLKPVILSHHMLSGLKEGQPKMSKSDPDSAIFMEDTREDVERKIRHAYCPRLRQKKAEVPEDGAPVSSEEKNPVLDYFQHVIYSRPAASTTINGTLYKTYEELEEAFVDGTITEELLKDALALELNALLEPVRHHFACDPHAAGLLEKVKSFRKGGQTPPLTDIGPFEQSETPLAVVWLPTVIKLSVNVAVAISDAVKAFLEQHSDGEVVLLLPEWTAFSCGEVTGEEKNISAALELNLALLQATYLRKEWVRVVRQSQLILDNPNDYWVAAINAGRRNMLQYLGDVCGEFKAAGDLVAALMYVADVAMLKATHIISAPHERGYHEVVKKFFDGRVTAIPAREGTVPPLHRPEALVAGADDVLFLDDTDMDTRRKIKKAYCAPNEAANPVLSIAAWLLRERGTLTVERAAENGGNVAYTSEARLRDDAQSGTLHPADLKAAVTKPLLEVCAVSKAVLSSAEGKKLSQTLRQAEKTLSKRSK
Measurement notes: Trypanosoma cruzi tyrosyl tRNA synthetase (TcYRS) _High Tyrosine SOP
Format: functional
Set-up: scale not given: in the data most compounds retested in dose-response had high values
Reported conditions: 30 µM
Parameter measured: Percent Effect (%)
Expressed in %, but write only the number.

*Q* Fill blank: measured Percent Effect of the molecule `c1ccc(NCc2cn3c(n2)CN(Cc2cccnc2)CC3)nc1` is ____.
*A* -1.08

*Q* Same for `CN(C)C(=O)CN(C)C(=O)c1cnc(Cc2ccc(F)cc2)s1`
*A* 0.546

*Q* Record: `O=C(c1ccccn1)N1C[C@@H]2CC[C@H](C1)N(C(=O)CCc1ccsc1)C2`
*A* 7.53

*Q* And for NC(=O)c1ccc(OCC(=O)N2CCCC(n3cccn3)C2)cc1 (centres undefined) ?
*A* 7.62

*Q* Thanks! And `Cc1nn(C)c(N(C)C)c1CNCc1cccc(OCCN(C)C)c1` ?
*A* -1.47

*Q* Now consider Cn1cc(C2CCCN2C(=O)c2ccc(Br)o2)cn1 (centres undefined) and answer again.
*A* 0.493

*Q* What about Cc1cccnc1NC(=O)C1CCCN1Cc1ccccc1 (centres undefined) ?
*A* 0.546

*Q* Item: `COCCn1ccc(=O)c(OCC(=O)Nc2ccccc2)c1C`
*A* 1.06

*Q* Repeat for the following molecule: c1cc2n(n1)CC(CNCc1ccc(OCC3CC3)nc1)CN2 (centres undefined)
*A* 13.6

*Q* Please do the same for NC(=O)C1CCN(C(=O)c2ccn(-c3ccc(F)cc3)n2)C1 (centres undefined) as well.
*A* 4.95

*Q* Next molecule: CCn1ncc2c1CCCC2NCc1cc(Cl)c(OC)c(OC)c1 (centres undefined)
*A* 9.36

*Q* What do you get for O=C1CC(N(C(=O)c2ccc3c(c2)CCC3)C2CC2)C(=O)N1 (centres undefined) ?
*A* -0.493

*Q* Quick one: `O=C(c1ccccn1)N1CCc2nc(-c3cnccn3)nc(O)c2C1`
*A* 4.3

*Q* Subsequent entry: `N#Cc1ccc(OCCCN2CCc3cncnc3C2)cc1`
*A* -0.493

*Q* What do you get for `CCc1nc2ccccc2c(=O)n1CC1(O)CCN(S(C)(=O)=O)CC1` ?
*A* 5.38

*Q* Also `Cc1nc(CN2CCCn3c(nc(Cn4ccnc4)cc3=O)C2)cs1` ?
*A* -1.06

*Q* `COc1ccnc(N2CCN(C(=O)CCc3nccs3)CC2)n1` , same question.
*A* 2.65

*Q* Note, next up: `Cc1ccc(C)c(OCCN2CCC(N3CCNC3=O)CC2)c1`
*A* 4.95

*Q* Next record, please: `O=C1CN(Cc2nnc(-c3ccccc3Br)o2)CCN1`
*A* 1.05

*Q* Try the molecule `CNc1cc(CNC(=O)c2ccccn2)nc(-c2ccncc2)n1`
*A* 2.15

*Q* Note, next up: CC(C(N)=O)S(=O)(=O)Cc1cc(Cl)c2c(c1)OCO2 (centres undefined)
*A* 5.42

*Q* Now consider `Cc1ncc2c(n1)CN(Cc1noc(C3CC3)n1)CC2` and answer again.
*A* 6.8

*Q* `CCCC(=O)N1CCC(O)(Cn2c(CC)nc3ccccc3c2=O)CC1` , same question.
*A* 4.3

*Q* Proceed to `c1cnc(N2C[C@H]3CCN(c4cccnc4)C[C@H]3C2)nc1`
*A* 5.94
